System: MDA-MB-231
Experiment: Cell viability assay (SRB or CTG) in MDA-MB-231
Type: cell-based
Conditions: Homo sapiens, MDA-MB-231, 72 h, 3 days after drug treatment
Rule: IC50 below 500 nM gives Fulfilled, anything at or above gives Not fulfilled.

{"columns": ["query smiles", "class assignment"],
 "data": [
  ["C[C@@H]1CN(c2cc(Nc3cc(-c4ccc(OC(F)F)cc4)cnn3)ccn2)C[C@H](C)O1", "Not fulfilled"],
  ["CNC(=O)c1nnc(Nc2nc(N3C[C@@H](C)O[C@@H](C)C3)ncc2F)cc1-c1ccc(OC(F)F)cc1", "Not fulfilled"],
  ["C[C@@H]1CN(c2ccc(F)c(Nc3cc(-c4ccc(OC(F)F)cc4)cnn3)n2)C[C@H](C)O1", "Fulfilled"],
  ["COC(=O)c1nnc(Nc2nc(N3C[C@@H](C)O[C@@H](C)C3)ncc2F)cc1-c1ccc(OC(F)F)cc1", "Not fulfilled"],
  ["C[C@@H]1CN(c2cc(Nc3cc(-c4ccc(OC(F)F)cc4)cnn3)c(F)cn2)C[C@H](C)O1", "Not fulfilled"],
  ["C[C@@H]1CN(c2nc(F)cc(Nc3cc(-c4ccc(OC(F)F)cc4)cnn3)n2)C[C@H](C)O1", "Fulfilled"],
  ["Fc1cnc(N2CCCC2)nc1Nc1cc(-c2ccc(OC(F)F)cc2)cnn1", "Fulfilled"],
  ["C[C@@H]1CN(c2nccc(Nc3cc(-c4ccc(OC(F)F)cc4)cnc3F)n2)C[C@H](C)O1", "Not fulfilled"],
  ["C[C@@H]1CN(c2ncc(F)c(Nc3cc(-c4ccc(OC(F)F)cc4)cnn3)n2)C[C@@H](C)O1", "Not fulfilled"]
]}
